# ASSAY_METHOD_TEXT: gradient 5% acetonitrile 3 min, to 50% in 2 min, to 85% in 15 min, held 3 min, 100 µL/min
# CONDITION: column: Zorbax Extend-C18 2.1 x 50 mm; eluents: water / acetonitrile, 0.1% formic acid
Label scheme for RP-LC retention time: lower than 800 s is no (0), 800 s and above is yes (1).

Answered cases to consult:
[
  {
    "COMPOUND": "O=C(O)CCC1CCN(S(=O)(=O)c2ccccc2)CC1",
    "GROUP_LABEL": "no (0)"
  },
  {
    "COMPOUND": "CC(C)c1ccc(Sc2ccc(N3CCC(C(=O)NCCN(C)C)CC3)nn2)cc1",
    "GROUP_LABEL": "no (0)"
  },
  {
    "COMPOUND": "COc1cccc(CC(=O)N2CCc3nc(-c4ccc(Cl)cc4)ncc3C2)c1",
    "GROUP_LABEL": "yes (1)"
  },
  {
    "COMPOUND": "Cc1cc2c(cc(C(=O)N3CCC(C(=O)NC4CCCC4)CC3)n2Cc2c(F)cccc2Cl)o1",
    "GROUP_LABEL": "yes (1)"
  },
  {
    "COMPOUND": "CCC(=O)Nc1ccc(-n2cnc(C(=O)N3CCN(c4ccccc4)CC3)c2)nc1",
    "GROUP_LABEL": "no (0)"
  },
  {
    "COMPOUND": "COc1ccc2[nH]c3c(c2c1)CCNC3",
    "GROUP_LABEL": "no (0)"
  },
  {
    "COMPOUND": "COc1ccc(C)cc1NC(=O)C(C)C1CCN(C(=O)Nc2ccc(Cl)cc2)CC1 (configuration not stated)",
    "GROUP_LABEL": "yes (1)"
  },
  {
    "COMPOUND": "COc1nn(C)cc1C(=O)NCCn1nc(-c2cccs2)ccc1=O",
    "GROUP_LABEL": "no (0)"
  }
]

Asked: Hi team, for "CCN1C(=O)c2cccnc2Sc2cc(NC(=O)C3CC3)ccc21" , is the recorded RP-LC retention time at or above 800 s?
Given back: no (0)

Asked: Hi team, for "Fc1ccccc1-c1ccc(CNCc2cccs2)o1" , is the recorded RP-LC retention time at or above 800 s?
Given back: no (0)

Asked: Hi team, for CC(C)(C)C1CCc2[nH]nc(C(=O)N3CCc4nn(CC#N)c(=O)n4CC3)c2C1 (configuration not stated) , is the recorded RP-LC retention time at or above 800 s?
Given back: no (0)

----------
# ASSAY_METHOD_TEXT: gradient 5% acetonitrile 3 min, to 50% in 2 min, to 85% in 15 min, held 3 min, 100 µL/min
# CONDITION: column: Zorbax Extend-C18 2.1 x 50 mm; eluents: water / acetonitrile, 0.1% formic acid
RP-LC retention time vs 700 s: less than gives true (1); not less than gives false (0).

[
  {
    "COMPOUND": "O=C(NCCC1CCN(C(=O)Nc2cc(F)ccc2F)CC1)c1ccsc1",
    "GROUP_LABEL": "false (0)"
  }
]

Asked: Is the reported RP-LC retention time for "O=C(NCCc1ccccc1)c1c(O)c2sccc2n(Cc2ccccc2)c1=O" strictly below 700 s?
Given back: false (0)

Asked: Is the reported RP-LC retention time for "O=C(CSc1nc(-c2ccccc2)c(NC(=O)c2cccs2)s1)NC1CC1" strictly below 700 s?
Given back: false (0)

Asked: Is the reported RP-LC retention time for "CCOc1ccccc1NC(=O)CNC(=O)c1c[nH]c2ccccc12" strictly below 700 s?
Given back: false (0)

Asked: Is the reported RP-LC retention time for "O=C(c1ccc2nc(-c3ccccc3)cn2c1)N1CCOCC1" strictly below 700 s?
Given back: true (1)

Asked: Is the reported RP-LC retention time for O=C(Nc1ccc2c(c1)OCO2)C1CCCN(S(=O)(=O)c2c[nH]c(C(=O)N3CCCC3)c2)C1 (stereo not drawn) strictly below 700 s?
Given back: false (0)
